# Tested on: microsomal lipid peroxidation
# Measurement protocol: in vitro lipid peroxidation, heat-inactivated hepatic microsomal fraction, Fe2+/ascorbate, TBA reactive material
# Assay type: biochemical, Fischer rats
# Assay conditions: compound concentration 50 μM
Overview of reported % Inhibition across a group of molecules:
Could you give me the number in %? Just the number is fine.

Check out these entries, answers already filled in.
1) CCCCCCC1(C)CC(NC(=O)CN(CC)CC)c2c(C)c(O)c(C)c(C)c2O1 (stereo not drawn) : 96.1
2) CCCCCCCCCCCCC1(C)CCc2c(c(C)c(C)c(O)c2C(=O)NCCN(CC)CC)O1 (stereo not drawn) : 0
3) CCN(CC)CCNC(=O)c1c(O)c(C)c(C)c2c1CCC(C)(C)O2 : 98.1
4) CCCCCCC1(C)CCc2c(c(C)c(C)c(O)c2C(=O)NCCN(CC)CC)O1 (stereo not drawn) : 87.4
5) CCN(CC)CC(=O)NC1CC(C)(C)Oc2c(C)c(C)c(O)c(C)c21 (stereo not drawn) : 98.6

The observed % Inhibition for CCCCCCC1(C(=O)NCCN(CC)CC)CCc2c(C)c(O)c(C)c(C)c2O1 (stereo not drawn) when tested with microsomal lipid peroxidation stands at 91
